Readings of pKd for the listed binders
Target: RSV prefusion F (preF, DS-Cav1) (Respiratory syncytial virus)
Assay: BLI, IgG on sensor, 100 nM antigen
Please express pKd as -log10 of the molar concentration.

Solved entries:
Binder: ADI-41286 (antibody, V domains shown) VH: QVQLVQSGAEVKKPGASVKVSCKASGYTFISYGISWVRQAPGQGPEWMGWISTHNGNTNYAQKLQGRVTMTTDTSTSTAYMELRSLRSDDTAVYYCARDERSIAVEVYLGSTFDIWGQGTMVTVSS VL: DIQVTQSPSSVSASVGDRVTITCRASQGISSWLAWYQQKPGKAPKLLIYAASTLQSGVPSRFSGSGSGTDFTLTISRLQPEDFATYYCQQANIFGVTFGPGTKVDIK
Endpoint value: 8.12
//
Binder: ADI-41265 (antibody, V domains shown) VH: EVQLVQSGAEVKKPGESLTISCKDSGYSFTSYWIGWVRQVPGKGLEWMGIVYPGDSRYSPSFQGHVTMSADKSINTAYLQWSTLKASDTAMYYCAKVVTYGSAIRWFESWGQGTLVTVSS VL: QSVLTQPPSVSAAPGQKVSISCSGSSSNIGNNFVSWYQQVPGTAPKLLIIDNNKRPSGIPDRFSGSKSGTSATLGITGLQTGDEADYYCGTWDSRLSAEVFGGGTKLTVL
Endpoint value: 7.82
//
Binder: ADI-41281 (antibody, V domains shown) VH: QVQLVQSGAEVKKPGASVKVSCKASGYSFTNHGIHWVRQAPGQRLEWMGWINVANGFTAYSQNLQGRVTFTRDTSASTAYLELTSLRSEDTAVYHCARDESYCSAGYCYLYFDYWGQGTTVTVSS VL: DIQVTQSPSSLSASVGDRVTITCRASQNIITYVNWYQQKPGKAPELLIFGASSVQSGVPSRFSGSGSGTDFTLTISSLRPDDFATYYCQQSYSNPRTFGGGTKVEIK
Endpoint value: 8.17
//
Binder: ADI-41253 (antibody, V domains shown) VH: EVQLVQSGPGLVKPSETLSLTCTVSGDSISSSDYSYYWGWIRQPPGKGLEWIASLSYSGKTYSQSSLKSRVIISVDTSKKQFSLKLSSVTAADTAVYYCAVTRCYVCTSEGDSFDMWGQGTMVTVSS VL: DIVLTQTPGTLSLSPGERATLSCRASQSISGNYLAWYQHKPGQAPRLLIYGASTRATGIPDRFSGSGSGTDFPLTISRLEPEDFAVYYCQQYATSPYTFGQGTKVDIK
Endpoint value: 8.95

Here is the next item to consider.
Form field pKd, entry ADI-41345 (antibody, V domains shown) VH: EVQLVQSGAEVRKPGESLKISCKGSGYNFASYWIAWVRQMPGKGLEWMGIIFPGDSDTRYSPSFQGQVTISVDKSISTAYLQWSSLKASDTAIYYCATSKYTFGYLDWGQGTLVTVSS VL: NFMLTQPHSVSESPGKTVTISCTRSSGSIASNYVQWYQQRPGSAPTTVIYEDNQRPSGVPDRFSGSIDSSSNSASLTISGLKTEDEADYYCQSYDTSNQVFGTGTKVTVL : 8.64
